Target: Protein kinase 7 (PK7), Plasmodium falciparum 3D7 (PF3D7_0213400) (UniProt Q7YTF7)
Assay: inhibition of Plasmodium PK7 catalytic activity – biochemical, TCAMS antimalarial set, Kinase-Glo luminescence (AID 1159587)
Details: recombinant PfPK7, Kinase-Glo ATP depletion luminescence
Calls of active or inactive are those of the source. The rule behind the calls is not given here.
Measured Metric: outcome

Recorded results for 4 compounds are shown here.
Cc1cc2c(/C=C/C(=O)NC3CCC(CCN4CCc5ccc(C#N)cc5CC4)CC3)cccc2[nH]1 (stereo not given)
inactive
Cc1ccc(Nc2ccnc(Nc3ccc(F)c(Cl)c3)n2)cc1O
inactive
COc1ccc(CCN(C)CCOc2ccc(NC(=O)COc3ccc4sc5ccccc5c(=O)c4c3)cc2)cc1OC
inactive
Cc1nn(-c2ccccc2)c2nc(-c3ccccc3)cc(C(=O)N3CCOCC3)c12
inactive

Exercise: For the compound O=C(Cc1cccc2ccccc12)NC1CCN(c2ccnc3cc(Cl)ccc23)C1 (stereo not given) , give its measured outcome value.
Key: inactive

###

Assay: antimalarial activity against Dd2 strain (AID 2302);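 note: 0% = DMSO untreated growth and 100% = chloroquine plus artemisinin killed control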
Conditions: P. falciparum Dd2 in RBCs, LDH growth readout, 72 h; at 2 µM; stronger effect = higher value
Measured Metric: growth inhibition (%)
Give a bare numeral; the unit % is implied.

Cc1nc(C)c(CC(=O)Nc2ccc(-c3cccc(-c4nc5ccc(C(F)(F)F)cc5[nH]4)c3)cc2)s1
4
Clc1ncccc1-c1nc(NCCC(c2ccccc2)c2ccccc2)no1
82

Exercise: For the compound NC(N)=NN=CC(=O)Nc1cc([N+](=O)[O-])cc([N+](=O)[O-])c1 , report growth inhibition.
Key: -2

Exercise: // fetch growth inhibition given entry CCc1ccc(CN2CCC(CNC(=O)c3cc(-c4cccc(F)c4)cs3)C2)cc1 (stereo not given)
Key: 4

Exercise: Please report growth inhibition for the following compound: N#Cc1ccc(CN2CCC(Oc3ccc(NC(=O)c4ccccc4)cc3Cl)CC2)cc1
Key: 65

###

Assay: inhibition of 3D7 malaria parasite growth – strain 3D7 (AID 2306);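 note: 0% = DMSO wells and 100% = chloroquine plus artemisinin control wells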
Conditions: P. falciparum 3D7 erythrocytic growth, LDH absorbance, 72 h; at 2 µM; stronger effect = higher value
Measured Metric: growth inhibition (%)
Your answer is read as %, so omit the unit and give the number.

Below, each entry is followed by its recorded growth inhibition result.
CCCCCCn1c2c(c(=N)c3c1CCC3)CCCC2
99
O=C(Nc1ccc(-c2nc3ccccc3[nH]2)cc1)c1ccc(N2CCOCC2)c([N+](=O)[O-])c1
101
Fc1ccc(Nc2ccnc3cc(-c4cccc(CN5CCCCC5)c4)ccc23)c(Cl)c1
91
CCC(C)NCc1c(O)ccc2c(CNC(C)CC)c(O)ccc12 (stereo not given)
100
Nc1nc(-c2ccccn2)nc(-n2nc(-c3cccc(C(F)(F)F)c3)cc2N)n1
87
Cc1cccc2[nH]c(-c3cccc(-c4ccc(NC(=O)C(C)(C)c5ccccn5)cc4)c3)nc12
97
CCOC(=O)NCC(=O)Nc1cccc(-c2cccc(-c3nc4c(C)cccc4[nH]3)c2)c1
88
Cc1cc2c(cc1Cl)N(C(=O)Nc1cc(F)cc(-c3cncnc3)c1)CC2
96

# next molecule below
Exercise: Supply measured growth inhibition of O=C(Nc1cccc(-c2ccc(CN3CCCC3)cc2)c1)c1cccc(Cl)c1 in your reply.
Key: 100

###

Test: antimalarial activity against Dd2 strain (AID 2302);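 note: 0% = DMSO untreated growth and 100% = chloroquine plus artemisinin killed control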
Details: P. falciparum Dd2 in RBCs, LDH growth readout, 72 h; at 2 µM
The source made the active and inactive calls.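 How the source made its calls: active means growth inhibition above 50% at the single 2 µM test dose, taken to imply half-maximal potency below 2 µM; inactive means the rest.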
Your response should consist of one outcome taken from active, inactive

COc1ccc(CN2CCC(N3CCc4cc(NC(=O)c5cc(C)on5)ccc43)C2)cc1Cl (centres undefined)
active

Exercise: Could you check what this test reported for COc1ccc2ccc(OC)c(CNCCCCCCNCc3c(OC)ccc4ccc(OC)cc34)c2c1 ?
Key: inactive

Exercise: Tell me the assay call for CN1CCN(CC(=O)Nc2cccc(-c3ccc(-c4nc5ccc(C(F)(F)F)cc5[nH]4)s3)c2)CC1 please.
Key: active

Exercise: Hey, what did the test say about O=C(/C=C/C=C/c1ccc(Cl)c(Cl)c1)NCCCCCN1CCCC2CCCCC21 (centres undefined) ?
Key: inactive

Exercise: Can you look up the reported call for COc1ccc(C(=O)O)cc1OCc1ccccc1 for me?
Key: inactive

Exercise: // param item: Nc1cccc(C=CC(=O)Nc2ccnc3ccccc23)c1 ; yields the recorded call
Key: active

Exercise: Recorded test call requested for O=C(NC1CCCC1)c1ccc(N2CCC(NCc3cccc(C(F)(F)F)c3)CC2)cc1
Key: active

Exercise: Tell me the recorded outcome of this test for CCCCCCc1ncc(-c2cc3cc(O)c(-c4ccccc4)cc3oc2=O)s1 .
Key: active

Exercise: // return assay outcome for CN(C)CCNC(=O)c1cc2c(-c3ccc(Cl)cc3)nn(C)c2s1
Key: active

Exercise: What classification did CCNc1cc(C(=O)N[C@@H](Cc2ccccc2)[C@H](O)CNC(C)C)cc(N2CC(c3ccccc3)CCS2(=O)=O)c1 (some centres undefined) end up with in this test?
Key: active

Exercise: Assay outcome for Cc1nc(Nc2ccc(C)c(Cl)c2)c2c(C)noc2n1 : what was it?
Key: active

Exercise: Tell me the recorded outcome of this test for Cc1cc(-c2cccc3c(C(=O)N4CCc5cc6nccc(N7CCCN(C)CC7)c6cc54)cccc23)cc(C)n1 .
Key: active

###

Assay: antimalarial activity against Dd2 strain (AID 2302);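 note: 0% = DMSO untreated growth and 100% = chloroquine plus artemisinin killed control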
Settings: P. falciparum Dd2 in RBCs, LDH growth readout, 72 h; at 2 µM
The source made the active and inactive calls.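 How the source made its calls: active means growth inhibition above 50% at the single 2 µM test dose, taken to imply half-maximal potency below 2 µM; inactive means the rest.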
Classes to choose from: active, inactive

Exercise: Per the records of this test, what outcome belongs to CCCCn1c(Sc2ccc(C#N)c([N+](=O)[O-])c2)nnc1-c1cccc(Cl)c1 ?
Key: active

###

Assay: HepG2 cytotoxicity, primary screen, cytotoxicity control for P. falciparum antimalarial project, cell-based, ATP luminescence (AID 2303);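 note: 0% = DMSO wells and 100% = digitonin-killed cells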
Conditions: HepG2 viability, 24-48 h, at 10 µM, stronger effect = higher value
Active and inactive are the calls of the source.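 The calls were made as follows: active = inhibition above 50%; inactive = the rest.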
As shown below, each of these compounds has a reported inhibition value.

O=C(/C=C/c1ccc(Cl)c(Cl)c1)NCCCCCN1CCC(NC(=O)Nc2cc(Cl)ccc2Cl)CC1
99% (active)
CC(=O)Nc1ccc(C(=O)Nc2cccc(-c3ccc(-c4nc5ccc(F)cc5[nH]4)cc3)c2)cn1
10% (inactive)

Exercise: Tell me measured inhibition for O=C(Nc1ccc(-c2ccc(-c3nc4ccccc4[nH]3)cc2)cc1)Nc1ccc(Cl)c(Cl)c1 please.
Key: 68% (active)

Exercise: Fill in inhibition for record C[C@H](Cc1ccc(C(=O)OC(c2ccccc2)c2ccccc2)cc1)NC[C@H](O)c1ccccc1
Key: 83% (active)

###

Target: Plasmodium falciparum protein kinase 6 (PK6, PF3D7_1337100)
Experiment: PfPK6 kinase inhibitors, biochemical, TCAMS library (AID 1159586)
Conditions: recombinant PfPK6, Kinase-Glo ATP depletion luminescence
Results with a measured potency or affinity are listed apart. Active and inactive are the calls of the source. The rule behind the calls is not given here.
Measured Metric: outcome

COC(=O)[C@@H](NC(=O)[C@@H](Nc1ccc(C#N)c2ccccc12)C(C)(C)C)c1ccc(O)cc1
inactive
O=C(c1ccc(O)c(-c2cc(Cl)cc(Cl)c2)c1)N(CCO)CCO
inactive
c1ccc2cc3c(Nc4ccc(N5CCCCCC5)cc4)ccnc3cc2c1
inactive
O=C(Nc1ccc(-c2csc3nccn23)cc1)c1ccc(Cl)cc1
inactive
Cc1ccc2c(=O)cc(CCc3cccc(F)c3F)n(CC(=O)N(Cc3ccc(-c4ccc(C(F)(F)F)cc4)cc3)C3CCN(C(C)C)CC3)c2n1
inactive

Exercise: Determine its reported outcome: COc1ccc2c(c1)OC(C)(C)CC2=NOS(=O)(=O)c1ccc(C)cc1
Key: inactive

Exercise: Identify the reported outcome for the following entry. O=C(NC1CCC(CCN2CCc3ccc(-c4cnccn4)cc3CC2)CC1)c1cccc(-n2cccn2)c1 (centres undefined)
Key: inactive

Exercise: Could you please provide reported outcome for CCOc1ccc2nc(C)cc(NN=Cc3ccccc3F)c2c1 ? Thanks!
Key: inactive

Exercise: Please give measured outcome of the following entry: Cc1cc(N[C@@H](Cc2ccccc2)C(=O)NCCOc2ccccc2)nc(NCC2CCCCC2)n1
Key: inactive

###

Entries and their growth inhibition values follow.
Assay: inhibition of 3D7 malaria parasite growth – strain 3D7 (AID 2306);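 note: 0% = DMSO wells and 100% = chloroquine plus artemisinin control wells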
Settings: P. falciparum 3D7 erythrocytic growth, LDH absorbance, 72 h; at 2 µM; stronger effect = higher value
Your answer is read as %, so omit the unit and give the number.

Exercise: Output growth inhibition of CCN(CCNC(=O)Nc1cc(C(F)(F)F)cc(C(F)(F)F)c1)c1cccc(C)c1
Key: 98

Exercise: Provide one value: measured growth inhibition of Nc1nccc2ccc(-c3ccncc3)cc12
Key: 96

Exercise: Identify growth inhibition associated with the compound CS(=O)(=O)c1ccc(-c2cc(C(F)(F)F)nc(N[C@@H]3CCCC[C@H]3OCc3ccccc3)n2)cc1
Key: 100

###

Test: antimalarial activity against Dd2 strain (AID 2302);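 note: 0% = DMSO untreated growth and 100% = chloroquine plus artemisinin killed control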
Conditions: P. falciparum Dd2 in RBCs, LDH growth readout, 72 h; at 2 µM
The source made the active and inactive calls.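 Rule for the calls: active = growth inhibition above 50% at the single 2 µM test dose, taken to imply half-maximal potency below 2 µM; inactive = the rest.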
// one of active, inactive, no free text

Cc1cc2nc(-c3ccc(SCC(=O)Nc4ccc5c(c4)OCCO5)nc3)[nH]c2cc1C
inactive
Cc1cc(CNC(c2ccccc2)C2CCC2)cc(C)c1O (stereo not given)
inactive
CCNc1cc(C(=O)N[C@@H](Cc2ccccc2)[C@H](O)CNCCc2cccc(C(F)(F)F)c2)cc(N2CCCC2=O)c1
active
CC(C)Cc1cnc2nc(N)nc(N)c2c1
inactive

Exercise: Please share the test call associated with O=C(Oc1ccc(C2CNCCc3c2cc(OC(=O)c2ccc(O)cc2)c(OC(=O)c2ccc(O)cc2)c3Cl)cc1)c1ccc(O)cc1 (stereo not given) .
Key: active

Exercise: Please state the recorded outcome for this compound: COc1ccc2c(NN=Cc3cccc(C)n3)ccnc2c1
Key: active

Exercise: Which outcome was assigned to N#Cc1ccc2c(c1)CCN(CCC1CCC(NC(=O)/C=C/c3ccc(F)c4ccccc34)CC1)CC2 (stereo not given) in this test?
Key: inactive

Exercise: For O=C(Nc1ccc(Cl)cc1)c1ccc(CN2CCCN(Cc3cccc(Cl)c3)CC2)cc1 , which call appears in the assay record?
Key: inactive

Exercise: What outcome does the record of this test show for OC(CNCCCc1ccccc1)c1cc(OCc2ccccc2)cc(OCc2ccccc2)c1 (stereo not given) ?
Key: active

Exercise: Look up the recorded call for CN1CCCN(Cc2cccc(-c3cccc(NC(=O)c4cccc(C#N)c4)c3)c2)CC1 in this test.
Key: inactive

Exercise: Outcome? Cc1[nH]c(C)c([N+](=O)[O-])c(=O)c1-c1ccc(Oc2ccccc2)cc1
Key: active

Exercise: Write down the call the test reported for this compound. Item: Nc1c2c(nc3ccc(Oc4ccc(Cl)cc4)cc13)CCCC2
Key: active

Exercise: // param item: c1csc(-c2ccc3c(c2)CC(NCc2c[nH]c4cnccc24)C3)c1 (stereo not given) ; yields the recorded call
Key: inactive
